EC50 overview
# study-system: CFTR-mediated chloride transport (Homo sapiens, UniProt P13569)
# assay-remarks: Corrector Assay A - membrane potential dye assay (enteroid cells)
# condition-summary: read-out: Corrector Assay A EC50; human intestinal enteroid cells, 18-24 h incubation; acute 10 μM forskolin + 300 nM ivacaftor
result-type: EC50

INSERT INTO assay_data (molecule, endpoint_result) VALUES
  ('Cn1nccc1C1CC[C@@H]2CN(c3nc(C(C)(C)C)ccc3C(=O)NS(=O)(=O)c3cccc(n3)N1)C(C)(C)C2 (single isomer, unassigned) [Compound 284]', '< 1 µM'),
  ('CC1CCC2CN(c3nc(C(C)(C)C)ccc3C(=O)NS(=O)(=O)c3ccn1n3)C(C)(C)C2 (single isomer, unassigned) [Compound 272]', '< 1 µM'),
  ('CC(C)C1CC[C@@H]2CN(c3nc(C(C)(C)C)ccc3C(=O)NS(=O)(=O)c3cccc(n3)N1)C(C)(C)C2 (single isomer, unassigned) [Compound 287]', '< 1 µM'),
  ('COCCN1CCC2(CC1)CC(NC(=O)[C@@H]1CC[C@@H]3CN(c4nc(C(C)(C)C)ccc4C(=O)NS(=O)(=O)c4cccc(n4)N1)C(C)(C)C3)C2', '> 3 µM'),
  ('CC(C)(C)c1ccnc([C@H]2CC[C@@H]3CN(c4nc(-c5cccc(OCCC6CC6)n5)ccc4C(=O)NS(=O)(=O)c4cccc(n4)N2)C(C)(C)C3)c1', '< 1 µM'),
  ('CC(C)(C)c1ccc2c(n1)N1CC(CCN(c3ccccc3)C(=O)c3cccc(c3)S(=O)(=O)NC2=O)CC1(C)C (single isomer, unassigned)', '> 3 µM'),
  ('CC(C)(C)c1ccc2c(n1)N1C[C@@H](CCC(c3ccc(C4CNC4)cn3)Nc3cccc(n3)S(=O)(=O)NC2=O)CC1(C)C (stereo partly shown) [Compound 166]', '< 1 µM');

---

# study-system: CFTR-mediated chloride transport (Homo sapiens, UniProt P13569)
# assay-remarks: Corrector Assay A - membrane potential dye assay (enteroid cells)
# condition-summary: read-out: Corrector Assay A EC50; human intestinal enteroid cells, 18-24 h incubation; acute 10 μM forskolin + 300 nM ivacaftor
pEC50: −log10 of the molar value.
result-type: pEC50

INSERT INTO measurements (molecule, study_system, result_type, endpoint_result) VALUES
  ('CC(C)(C)c1ccc2c(n1)N1C[C@@H](CCC(c3cc(CN)ccn3)Nc3cccc(n3)S(=O)(=O)NC2=O)CC1(C)C (single isomer, unassigned) [Compound 115]', 'CFTR-mediated chloride transport (Homo sapiens, UniProt P13569)', 'pEC50', '> 6.00'),
  ('CC(C)(C)c1ccc2c(n1)N1C[C@@H](CC[C@@H](c3cc(C4=CCOCC4)ccn3)Nc3cccc(n3)S(=O)(=O)NC2=O)CC1(C)C (single isomer, unassigned) [Compound 126]', 'CFTR-mediated chloride transport (Homo sapiens, UniProt P13569)', 'pEC50', '> 6.00'),
  ('COCCN1CCC2(CC1)CC(NC(=O)C1CC[C@@H]3CN(c4nc(C(C)(C)C)ccc4C(=O)NS(=O)(=O)c4cccc(n4)N1)C(C)(C)C3)C2 (single isomer, unassigned)', 'CFTR-mediated chloride transport (Homo sapiens, UniProt P13569)', 'pEC50', '5.52 to 6.00'),
  ('CC(C)(C)c1ccc2c(n1)N1C[C@@H](CC[C@@H](c3cc(CCN)ccn3)Nc3cccc(n3)S(=O)(=O)NC2=O)CC1(C)C (single isomer, unassigned) [Compound 85]', 'CFTR-mediated chloride transport (Homo sapiens, UniProt P13569)', 'pEC50', '> 6.00');
